- test-name: NR viability assay, value not assigned to one cell line
- Type: cell-based, Mus musculus
- recorded-conditions: mouse, across IC-21 and RAW 264.7 / cell line not given, compounds series
Starred links: 1 amine or outer side, 2 acyl side, 3 side chain; linkers in the order of their positions; H or OH if unused. Positions of bridges follow the written chain, without caps; N, C: chain ends. Non-standard residues stand in square brackets, D forms with d. Residues, ends and D or L forms follow the SMILES beside them. Chains are numbered I, II in the order given. Actinocin(9to1) = Cc1c2oc3c(C)ccc(C(=O)[*:1])c3nc-2c(C(=O)[*:2])c(N)c1=O; NMeV = CN[C@H](C(=O)O)C(C)C; Sar = CNCC(=O)O

>  <compound>
Cc1c2oc3c(C)ccc(C(=O)N[C@@H]4C(=O)N[C@H](C(C)C)C(=O)N5CCC[C@H]5C(=O)N(C)CC(=O)N(C)[C@@H](C(C)C)C(=O)O[C@@H]4C)c3nc-2c(C(=O)N[C@@H]2C(=O)N[C@H](C(C)C)C(=O)N3CCC[C@H]3C(=O)N(C)CC(=O)N(C)[C@@H](C(C)C)C(=O)O[C@@H]2C)c(N)c1=O [ACTD, actinomycin D, reference compound] (I: T[dV]P[Sar][NMeV] / II: T[dV]P[Sar][NMeV]; ester I:1-I:C, II:1-II:C; linker I:N-II:N via Actinocin(9to1))

>  <CC50 at 72 h>
8.5 to 8.8 nM

$$$$

---

- test-name: NR (neutral red) viability assay, IC-21 cells
- Type: cell-based, Mus musculus
- recorded-conditions: mouse, IC-21, 72 h, extracts series
Starred links: 1 amine or outer side, 2 acyl side, 3 side chain; linkers in the order of their positions; H or OH if unused. Positions of bridges follow the written chain, without caps; N, C: chain ends. Non-standard residues stand in square brackets, D forms with d. Residues, ends and D or L forms follow the SMILES beside them. Chains are numbered I, II in the order given. Actinocin(9to1) = Cc1c2oc3c(C)ccc(C(=O)[*:1])c3nc-2c(C(=O)[*:2])c(N)c1=O; NMeV = CN[C@H](C(=O)O)C(C)C; Sar = CNCC(=O)O
readout-name: CC50 at 72 h (µg/mL)

>  <compound>
Cc1c2oc3c(C)ccc(C(=O)N[C@@H]4C(=O)N[C@H](C(C)C)C(=O)N5CCC[C@H]5C(=O)N(C)CC(=O)N(C)[C@@H](C(C)C)C(=O)O[C@@H]4C)c3nc-2c(C(=O)N[C@@H]2C(=O)N[C@H](C(C)C)C(=O)N3CCC[C@H]3C(=O)N(C)CC(=O)N(C)[C@@H](C(C)C)C(=O)O[C@@H]2C)c(N)c1=O [ACTD, actinomycin D, reference compound] (I: T[dV]P[Sar][NMeV] / II: T[dV]P[Sar][NMeV]; ester I:1-I:C, II:1-II:C; linker I:N-II:N via Actinocin(9to1))

>  <readout-name>
CC50 at 72 h

>  <result-number>
0.0143

$$$$

---

- test-name: NR (neutral red) viability assay, IC-21 cells
- Type: cell-based, Mus musculus
- recorded-conditions: mouse, IC-21, 72 h, compounds series
Starred links: 1 amine or outer side, 2 acyl side, 3 side chain; linkers in the order of their positions; H or OH if unused. Positions of bridges follow the written chain, without caps; N, C: chain ends. Non-standard residues stand in square brackets, D forms with d. Residues, ends and D or L forms follow the SMILES beside them. Chains are numbered I, II in the order given. Actinocin(9to1) = Cc1c2oc3c(C)ccc(C(=O)[*:1])c3nc-2c(C(=O)[*:2])c(N)c1=O; NMeV = CN[C@H](C(=O)O)C(C)C; Sar = CNCC(=O)O
readout-name: CC50 at 72 h (nM)

>  <compound>
Cc1c2oc3c(C)ccc(C(=O)N[C@@H]4C(=O)N[C@H](C(C)C)C(=O)N5CCC[C@H]5C(=O)N(C)CC(=O)N(C)[C@@H](C(C)C)C(=O)O[C@@H]4C)c3nc-2c(C(=O)N[C@@H]2C(=O)N[C@H](C(C)C)C(=O)N3CCC[C@H]3C(=O)N(C)CC(=O)N(C)[C@@H](C(C)C)C(=O)O[C@@H]2C)c(N)c1=O [ACTD, actinomycin D, reference compound] (I: T[dV]P[Sar][NMeV] / II: T[dV]P[Sar][NMeV]; ester I:1-I:C, II:1-II:C; linker I:N-II:N via Actinocin(9to1))

>  <readout-name>
CC50 at 72 h

>  <result-number>
8.5

$$$$
